Origin of measurements: ChEMBL document CHEMBL1138672

The following are reported Ki results, target or system D(3) dopamine receptor (Homo sapiens, UniProt P35462).
READOUT: Ki (nM)

{"COMPOUND_STRING": "c1ccc(Cc2ccccc2OCCN2CCCCC2)cc1", "Ki (nM)": 7800}

P. CN1CCOc2cc(O)ccc2Cc2ccccc2CC1
Q. c1ccc(Cc2ccccc2OCCN2CCN(c3ccccc3)CC2)cc1
Input line: Between the entries labeled P and Q , whose measured Ki is lower? Could you answer with the label of the item you picked?
Output line: P

---

Target: UniProt:P14416
Sequence (P14416 whole entry): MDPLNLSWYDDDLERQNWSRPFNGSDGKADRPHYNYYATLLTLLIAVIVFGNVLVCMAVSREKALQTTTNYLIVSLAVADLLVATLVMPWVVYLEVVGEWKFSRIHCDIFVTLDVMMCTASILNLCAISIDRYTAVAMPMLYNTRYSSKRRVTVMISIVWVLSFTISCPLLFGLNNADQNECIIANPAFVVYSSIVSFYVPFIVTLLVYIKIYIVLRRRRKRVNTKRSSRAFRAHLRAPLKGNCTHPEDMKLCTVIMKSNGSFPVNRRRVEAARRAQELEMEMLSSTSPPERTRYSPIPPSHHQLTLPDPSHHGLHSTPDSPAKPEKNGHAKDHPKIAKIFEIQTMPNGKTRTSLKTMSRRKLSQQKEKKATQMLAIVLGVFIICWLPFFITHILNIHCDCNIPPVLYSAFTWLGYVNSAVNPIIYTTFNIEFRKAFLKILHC
Test: Binding affinity for human recombinant dopamine receptor D2L
READOUT: Ki (nM)

{"COMPOUND": "c1ccc(Cc2ccccc2OCCN2CCCCC2)cc1", "UNITS_LABEL": "nM", "OBS_VALUE": 1020}
{"COMPOUND": "c1ccc(Cc2ccccc2OCCN2CCN(c3ccccc3)CC2)cc1", "UNITS_LABEL": "nM", "OBS_VALUE": 4190}
{"COMPOUND": "CCN(CC)CCOc1ccccc1Cc1ccccc1", "UNITS_LABEL": "nM", "OBS_VALUE": 2020}
{"COMPOUND": "OC(c1ccccc1)c1ccccc1OCCN1CCCC1 (stereo not drawn)", "UNITS_LABEL": "nM", "OBS_VALUE": 6280}
{"COMPOUND": "COc1ccc2c(c1)OCCN(C)CCc1ccccc1C2", "UNITS_LABEL": "nM", "OBS_VALUE": 158}

a. CN1CCOc2cc(O)ccc2Cc2ccccc2CC1
b. O=C(c1ccccc1)c1ccccc1OCCN1CCCC1
Input line: Task for the reader: decide whether a or b has the larger Ki. Could you answer with the label of the item you picked?
Output line: b

A. CN(C)CCOc1ccccc1Cc1ccccc1
B. c1ccc(Cc2ccccc2OCCCN2CCCC2)cc1
Input line: Between the entries labeled A and B , whose measured Ki is lower? Could you answer with the label of the item you picked?
Output line: B

---

Biological target: D(1A) dopamine receptor (Homo sapiens, UniProt P21728)
Sequence (P21728 whole entry): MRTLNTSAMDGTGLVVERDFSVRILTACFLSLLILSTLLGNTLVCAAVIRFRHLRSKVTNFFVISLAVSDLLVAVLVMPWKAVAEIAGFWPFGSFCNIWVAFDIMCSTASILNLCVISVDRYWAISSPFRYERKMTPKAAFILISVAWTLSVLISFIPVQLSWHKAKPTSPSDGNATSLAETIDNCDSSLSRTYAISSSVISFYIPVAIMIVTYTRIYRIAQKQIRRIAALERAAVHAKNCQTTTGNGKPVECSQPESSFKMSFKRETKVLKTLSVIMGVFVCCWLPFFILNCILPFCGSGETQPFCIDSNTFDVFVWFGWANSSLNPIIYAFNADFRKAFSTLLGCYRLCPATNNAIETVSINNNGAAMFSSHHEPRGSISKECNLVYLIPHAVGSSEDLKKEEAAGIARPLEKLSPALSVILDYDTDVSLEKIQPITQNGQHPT
pKi: −log10 of the molar value.
READOUT: pKi

{"COMPOUND": "COc1ccc2c(c1)OCCN(C)CCc1ccccc1C2", "pKi": 7.45}

1. CN1CCOc2cc(O)ccc2Cc2ccccc2CC1
2. CCN(CC)CCOc1ccccc1Cc1ccccc1
Input line: Between the entries labeled 1 and 2 , whose measured pKi is lower? Could you answer with the label of the item you picked?
Output line: 2
(2: 5.71, 1: 8.49)

A. c1ccc(Cc2ccccc2OCCN2CCOCC2)cc1
B. CC1CN(CCOc2ccccc2Cc2ccccc2)CCO1 (stereo not given)
Input line: Between the entries labeled A and B , whose measured pKi is lower? Could you answer with the label of the item you picked?
Output line: B
(B: 5.78, A: 6.70)

---

Target: D(1B) dopamine receptor (Homo sapiens, UniProt P21918)
Sequence (P21918 whole entry): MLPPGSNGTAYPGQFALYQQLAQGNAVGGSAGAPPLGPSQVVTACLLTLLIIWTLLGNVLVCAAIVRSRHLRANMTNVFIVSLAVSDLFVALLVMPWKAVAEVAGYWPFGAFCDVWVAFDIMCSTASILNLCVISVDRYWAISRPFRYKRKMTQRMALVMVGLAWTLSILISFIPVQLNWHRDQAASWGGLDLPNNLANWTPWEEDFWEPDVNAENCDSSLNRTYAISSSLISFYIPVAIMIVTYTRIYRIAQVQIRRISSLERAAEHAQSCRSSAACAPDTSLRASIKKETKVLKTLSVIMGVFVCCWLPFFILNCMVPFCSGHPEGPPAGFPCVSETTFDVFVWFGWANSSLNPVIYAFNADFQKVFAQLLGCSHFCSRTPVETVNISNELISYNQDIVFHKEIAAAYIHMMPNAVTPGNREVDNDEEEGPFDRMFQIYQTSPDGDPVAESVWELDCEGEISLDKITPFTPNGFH
Experiment: Binding affinity for human recombinant dopamine receptor D5
pKi: −log10 of the molar value.
READOUT: pKi

Examples from the recorded data:
{"COMPOUND": "c1ccc(Cc2ccccc2OCCN2CCOCC2)cc1", "OBS_VALUE": 6.44}
{"COMPOUND": "c1ccc(Cc2ccccc2OCCN2CCN(c3ccccc3)CC2)cc1", "OBS_VALUE": 6.21}
{"COMPOUND": "c1ccc(Cc2ccccc2OCCN2CCCC2)cc1", "OBS_VALUE": 6.02}
{"COMPOUND": "CN(C)CCOc1ccccc1Cc1ccccc1 [PHENYLTOLOXAMINE]", "OBS_VALUE": 6.38}
{"COMPOUND": "c1ccc(Cc2ccccc2OCCCN2CCCC2)cc1", "OBS_VALUE": 6.95}

A. c1ccc(Cc2ccccc2OCCN2CCCCC2)cc1
B. CN1CCOc2cc(O)ccc2Cc2ccccc2CC1
C. COc1ccc2c(c1)OCCN(C)CCc1ccccc1C2
Input line: Hello, I need these entries ordered by pKi, highest reading first. Thanks! Give the labels in the order requested.
Output line: B, C, A
(B: 9.24, C: 8.74, A: 7.37)
